# Subject Of Test: Mitogen-activated protein kinase kinase kinase 7 (Homo sapiens, UniProt O43318)
# Sequence (O43318 whole entry): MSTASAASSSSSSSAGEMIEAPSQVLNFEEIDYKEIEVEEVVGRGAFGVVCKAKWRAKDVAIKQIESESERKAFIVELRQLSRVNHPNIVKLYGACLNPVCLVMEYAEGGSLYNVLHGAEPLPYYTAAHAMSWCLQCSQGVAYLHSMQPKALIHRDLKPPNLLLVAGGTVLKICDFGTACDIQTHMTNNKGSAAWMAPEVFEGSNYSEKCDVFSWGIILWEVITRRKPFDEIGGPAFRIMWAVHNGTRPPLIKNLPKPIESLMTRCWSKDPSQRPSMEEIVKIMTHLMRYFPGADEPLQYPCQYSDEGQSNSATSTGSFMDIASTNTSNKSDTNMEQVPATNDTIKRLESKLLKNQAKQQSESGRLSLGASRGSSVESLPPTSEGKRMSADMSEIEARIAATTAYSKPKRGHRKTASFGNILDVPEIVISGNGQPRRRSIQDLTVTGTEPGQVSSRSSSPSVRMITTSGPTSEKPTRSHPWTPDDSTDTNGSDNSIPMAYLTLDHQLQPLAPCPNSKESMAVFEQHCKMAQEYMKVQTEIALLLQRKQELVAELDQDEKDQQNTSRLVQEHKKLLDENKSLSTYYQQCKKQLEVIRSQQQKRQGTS
# Measurement Protocol: Inhibition of full length recombinant human GST-tagged TAK1 expressed in baculovirus expression system after 1 hr by TR-FRET based LanthaScreen assay
Measured IC50, listed per entry for reference.

Below are worked cases with known answers.
- Given Smiles: "C=CC(=O)Nc1cc(NC(C)=O)ccc1Oc1nc(Nc2ccc(N3CCN(C)CC3)cc2)ncc1Cl"
  Subject Of Test: "Mitogen-activated protein kinase kinase kinase 7 (Homo sapiens, UniProt O43318)"
  IC50: "1640 nM"
- Given Smiles: "C=CC(=O)Oc1ccccc1Nc1nc(Nc2ccc(N3CCN(C)CC3)cc2OC)ncc1Cl"
  Subject Of Test: "Mitogen-activated protein kinase kinase kinase 7 (Homo sapiens, UniProt O43318)"
  IC50: "342 nM"
- Given Smiles: "C=CC(=O)Nc1ccc(Oc2nc(Nc3ccc(N4CCN(C)CC4)cc3)nc3[nH]ccc23)cc1"
  Subject Of Test: "Mitogen-activated protein kinase kinase kinase 7 (Homo sapiens, UniProt O43318)"
  IC50: "34 nM"

IC50 recorded for this molecule, CCC(=O)Nc1ccccc1Oc1nc(Nc2ccc(N3CCN(C)CC3)cc2)ncc1Cl , is > 10000 nM

IC50 recorded for this molecule, CN1CCN(c2ccc(Nc3ncc(Cl)c(Oc4ccccc4NC(=O)CCl)n3)cc2)CC1 , is 25 nM

---

# Subject Of Test: Mitogen-activated protein kinase 1 (Homo sapiens, UniProt P28482)
# Sequence (P28482 whole entry): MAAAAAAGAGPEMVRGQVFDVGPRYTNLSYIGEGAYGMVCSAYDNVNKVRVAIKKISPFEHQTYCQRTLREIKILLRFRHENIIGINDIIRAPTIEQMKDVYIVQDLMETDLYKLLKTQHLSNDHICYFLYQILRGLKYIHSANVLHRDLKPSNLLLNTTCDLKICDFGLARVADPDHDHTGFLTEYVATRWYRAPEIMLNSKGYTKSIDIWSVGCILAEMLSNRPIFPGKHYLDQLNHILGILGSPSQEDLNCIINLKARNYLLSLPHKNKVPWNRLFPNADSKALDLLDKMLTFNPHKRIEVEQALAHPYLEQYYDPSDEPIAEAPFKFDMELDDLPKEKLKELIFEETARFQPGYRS
# Measurement Protocol: Inhibition of full length recombinant human GST-tagged ERK2 expressed in Escherichia coli using Ser/Thr 03 as substrate after 1 hr by Z'-Lyte assay
Assay Readout: log10 IC50 (log10 of the value in nM)
Could you please treat all values as log10 of IC50 in nM?

Below are worked cases with known answers.
- Given Smiles: "C=CC(=O)Oc1ccccc1Nc1nc(Nc2ccc(N3CCOCC3)cc2)ncc1Cl"
  Measurement: 2.56
- Given Smiles: "COc1cc(O)c2c(c1)/C=C/C[C@H](O)[C@H](O)C(=O)/C=C\\C[C@H](C)OC2=O"
  Measurement: 2.87
- Given Smiles: "C=CC(=O)Nc1ccccc1Oc1nc(Nc2ccc(N3CCN(C)CC3)cc2)ncc1OC"
  Measurement: 3.22
- Given Smiles: "C=CC(=O)Nc1ccccc1Oc1nc(Nc2ccc(N3CCN(C)CC3)cc2)ncc1C"
  Measurement: 3.97
- Given Smiles: "C=CC(=O)Nc1ccccc1Oc1nc(Nc2cnn(C(F)F)c2)ncc1Cl"
  Measurement: 2.38
- Given Smiles: "C=CC(=O)Nc1ccccc1Oc1nc(Nc2cnn(CCOC)c2)ncc1Cl"
  Measurement: 1.96
- Given Smiles: "C=CC(=O)Nc1ccccc1Nc1nc(Nc2ccc(N3CCN(C)CC3)cc2)ncc1Cl"
  Measurement: 3.04
- Given Smiles: "C=CC(=O)Oc1ccccc1Nc1nc(Nc2cccc(N3CCN(C(C)=O)CC3)c2)ncc1Cl"
  Measurement: 2.35

Measured log10 IC50 (Mitogen-activated protein kinase 1 (Homo sapiens, UniProt P28482)), entry C=CC(=O)Nc1ccccc1Oc1nc(Nc2cnn(C3CCOCC3)c2)ncc1Cl : 3.66

Measured log10 IC50 (Mitogen-activated protein kinase 1 (Homo sapiens, UniProt P28482)), entry C=CC(=O)Nc1ccccc1Oc1nc(Nc2cnn(C)c2)ncc1Cl : 3.50

Measured log10 IC50 (Mitogen-activated protein kinase 1 (Homo sapiens, UniProt P28482)), entry C=CC(=O)Nc1ccccc1Oc1nc(Nc2ccc(N3CCN(C)CC3)cc2)ncc1Cl : 3.85

---

# Measurement Protocol: Half life in mouse liver microsomes by LC-MS/MS analysis
# Type: ADME
Measured t1/2, listed per entry for reference.
Give your result in min as a bare value.

Below are worked cases with known answers.
- Given Smiles: "C=CC(=O)Nc1ccccc1-n1ccc2cnc(Nc3ccc(N4CCN(C)CC4)cc3)nc21"
  Assay Readout: "t1/2"
  Measurement: 10.5
- Given Smiles: "C=CC(=O)Nc1ccccc1Oc1nc(Nc2ccc(N3CCN(C)CC3)cc2)ncc1C"
  Assay Readout: "t1/2"
  Measurement: 8.8
- Given Smiles: "C=CC(=O)Nc1ccccc1Oc1nc(Nc2ccc(N3CCN(C)CC3)cc2)ncc1OC"
  Assay Readout: "t1/2"
  Measurement: 15.3
- Given Smiles: "C=CC(=O)Nc1ccccc1Oc1nc(Nc2cnn(C3CCOCC3)c2)ncc1Cl"
  Assay Readout: "t1/2"
  Measurement: 4
- Given Smiles: "CN1CCN(c2ccc(Nc3ncc(Cl)c(Oc4ccccc4NC(=O)CCl)n3)cc2)CC1"
  Assay Readout: "t1/2"
  Measurement: 3

t1/2 recorded for this compound, C=CC(=O)Nc1ccccc1Oc1nc(Nc2cnn(CCOC)c2)ncc1Cl , is 6.9

t1/2 recorded for this compound, C=CC(=O)Oc1ccccc1Nc1nc(Nc2ccc(N3CCOCC3)cc2)ncc1Cl , is 3.8

---

# Subject Of Test: Dual specificity mitogen-activated protein kinase kinase 1 (Homo sapiens, UniProt Q02750)
# Sequence (Q02750 whole entry): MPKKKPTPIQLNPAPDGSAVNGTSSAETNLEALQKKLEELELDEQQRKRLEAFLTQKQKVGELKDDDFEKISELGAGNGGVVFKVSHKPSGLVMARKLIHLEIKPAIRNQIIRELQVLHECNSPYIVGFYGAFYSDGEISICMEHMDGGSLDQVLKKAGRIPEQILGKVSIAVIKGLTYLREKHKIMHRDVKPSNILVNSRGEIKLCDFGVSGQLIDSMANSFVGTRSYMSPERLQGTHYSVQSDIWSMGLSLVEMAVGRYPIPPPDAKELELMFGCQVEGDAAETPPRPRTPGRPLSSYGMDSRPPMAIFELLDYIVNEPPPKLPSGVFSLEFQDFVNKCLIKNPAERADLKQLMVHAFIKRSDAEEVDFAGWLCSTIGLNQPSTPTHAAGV
# Measurement Protocol: Inhibition of full length recombinant human His-tagged MEK1 expressed in baculovirus expression system after 1 hr by TR-FRET based LanthaScreen assay
Measured pIC50, listed per entry for reference.
The meaning of pIC50 here: minus log10 of the concentration in molar units.

Below are worked cases with known answers.
- Given Smiles: "C=CC(=O)Nc1ccccc1Oc1nc(Nc2cnn(CCOC)c2)ncc1Cl"
  pIC50: 8.07
- Given Smiles: "C=CC(=O)Nc1ccccc1Oc1nc(Nc2cnn(C)c2)ncc1Cl"
  pIC50: 8.01
- Given Smiles: "C=CC(=O)Nc1ccccc1Sc1nc(Nc2ccc(N3CCN(C)CC3)cc2)ncc1Cl"
  pIC50: 5.61
- Given Smiles: "C=CC(=O)Nc1ccccc1Oc1nc(Nc2cnn(C(F)F)c2)ncc1Cl"
  pIC50: 7.59
- Given Smiles: "C=CC(=O)Nc1ccccc1Nc1nc(Nc2ccc(N3CCN(C)CC3)cc2)ncc1Cl"
  pIC50: 6.85
- Given Smiles: "C=CC(=O)Nc1ccccc1Oc1nc(Nc2cnn(C3CCOCC3)c2)ncc1Cl"
  pIC50: 8.09

pIC50 recorded for this compound, C=CC(=O)Oc1ccccc1Nc1nc(Nc2cccc(N3CCOCC3)c2)ncc1Cl , is 7.96

pIC50 recorded for this compound, COc1cc(O)c2c(c1)/C=C/C[C@H](O)[C@H](O)C(=O)/C=C\C[C@H](C)OC2=O , is 8.54

---

# Subject Of Test: Mitogen-activated protein kinase 1 (Homo sapiens)
# Measurement Protocol: Inhibition of full length recombinant human GST-tagged ERK2 expressed in Escherichia coli using Ser/Thr 03 as substrate after 1 hr by Z'-Lyte assay
Assay Readout: pIC50
The meaning of pIC50 here: minus log10 of the concentration in molar units.

Below are worked cases with known answers.
- Given Smiles: "C=CC(=O)Nc1ccccc1Oc1nc(Nc2ccc(N3CCN(C)CC3)cc2)ncc1C1CC1"
  pIC50: 5.25
- Given Smiles: "C=CC(=O)Oc1ccccc1Nc1nc(Nc2cccc(N3CCOCC3)c2)ncc1Cl"
  pIC50: 6.13

pIC50 recorded for this molecule, C=CC(=O)Oc1ccccc1Nc1nc(Nc2ccc(N3CCN(C)CC3)cc2)ncc1Cl , is 6.56

---

# Measurement Protocol: Half life in mouse liver microsomes by LC-MS/MS analysis
# Type: ADME
Assay Readout: t1/2 (min)
Give your result in min as a bare value.

Below are worked cases with known answers.
- Given Smiles: "C=CC(=O)Oc1ccccc1Nc1nc(Nc2ccc(N3CCN(C)CC3)cc2)ncc1Cl"
  t1/2 (min): 5.7
- Given Smiles: "C=CC(=O)Nc1ccccc1Oc1nc(Nc2cnn(C)c2)ncc1Cl"
  t1/2 (min): 8.1
- Given Smiles: "C=CC(=O)Nc1ccccc1Oc1nc(Nc2ccc(N3CCN(C)CC3)cc2)ncc1Cl"
  t1/2 (min): 6.1
- Given Smiles: "C=CC(=O)Oc1ccccc1Nc1nc(Nc2cccc(N3CCOCC3)c2)ncc1Cl"
  t1/2 (min): 23

t1/2 recorded for this molecule, C=CC(=O)Nc1ccccc1Nc1nc(Nc2ccc(N3CCN(C)CC3)cc2)ncc1Cl , is 10.8

t1/2 recorded for this molecule, C=CC(=O)Nc1ccccc1Oc1nc(Nc2cnn(C(F)F)c2)ncc1Cl , is 4.2

t1/2 recorded for this molecule, C=CC(=O)Nc1ccccc1Oc1nc(Nc2ccc(N3CCN(C)CC3)cc2)ncc1C1CC1 , is 12.8
